- Test system: UACC-257 melanoma
- TEST NAME: NCI tumour cell line growth inhibition, 48 h
The entries below come with measured log10 TGI values attached.
MEASURED METRIC: log10 TGI (log10 of the value in µM)

CN(C)CCNC(=O)c1ccc2oc3cc4ccccc4c(=O)n3c2c1 ... 1.76
CN(C)CC1CCC/C(=C\c2ccccc2)C1=O (stereo not drawn) ... 0.87
O=C(CSSCC(=O)OCCS(=O)(=O)Nc1ccc(Br)cc1)OCCS(=O)(=O)Nc1ccc(Br)cc1 ... 1.65
O=C([CH-]C(=O)c1ccccc1)c1ccccc1.O=C([CH-]C(=O)c1ccccc1)c1ccccc1.O=C([CH-]C(=O)c1ccccc1)c1ccccc1.[Cl-].[Hf+4] ... 1.84
C=C1C(=O)C2=CC1CCC(=O)C1(C)CCC(OC(C)=O)C(C)(C)C1CC2O (stereo not drawn) ... 1.23
CC(=O)NC1COC(COC(=O)CCCCCCCCCCNC(=O)c2ccc([N+](=O)[O-])c3c(=O)c4ccccc4[nH]c23)C(O)C1OC(C)C(=O)NC(C(=O)NC(CCC(N)=O)C(=O)OCc1ccccc1)C(C)C (stereo not drawn) ... 1.59
Cc1ccc(C(=O)NCCN(C)C)c2nc3ccccc3cc12 ... 0.78
CCCCCCCCCCCCCCCCN(CC)CC ... 0.70
COc1cc(/C=C2\N=C(c3ccccc3)N(c3nc4ccc(Sc5ccccc5)cc4[nH]3)C2=O)cc(OC)c1OC ... 1.66
COc1ccc2nc3cccc([N+](=O)[O-])c3c(NC(C)CN(C)C)c2c1 (stereo not drawn) ... 0.85

###

- Tested on: HS 578T breast
- TEST NAME: NCI tumour cell line growth inhibition, 48 h
Label scheme for TGI: lower than 50 µM is False, 50 µM and above is True.

NC(=O)CCSC(CC(=O)c1ccc(Cl)cc1)c1ccc(Cl)cc1 (configuration not stated) ... True
O=CN1CCC23CC(O)CCC2C1Cc1cc(Oc2nnnn2-c2ccccc2)cc(O)c13 (configuration not stated) ... True
Cc1ccc(C(=O)Oc2ccc(/C=C3\CCC/C(=C\c4ccc(OC(=O)c5ccc(C)cc5)cc4)C3=O)cc2)cc1 ... True
C=CC1(c2ccc3ccccc3c2)OCC(CC)O1 (configuration not stated) ... True
C=CCCCC1(C)CCNC1=S (configuration not stated) ... True
Cc1ccc(OCCOCCOCCOCCOCCOc2ccc(C)n(O)c2=S)c(=S)n1O ... True
CCCCC1(O)CC2CC1C(C)C2(C)C (configuration not stated) ... True
NC(N)=N/N=C/c1c(-c2cccnc2)nc2sc(Cl)cn12 ... False
CC(=O)Oc1ccc2cc(-c3ccc(OC(C)=O)c(OC(C)=O)c3)c(=O)oc2c1 ... True
COc1cc(CCNC(=O)OC(C)(C)C)c2c(c1OC)SSSSS2 ... False
CC(=O)OCCCC#CC#Cc1cccc(=O)o1 ... True
O=C(O)Cc1ccc(N=Nc2c(O)c(C(=O)O)cc3ccccc23)cc1 ... True
CCNc1nnc(-c2ccccc2Nc2ccccc2-c2nnc(NCC)s2)s1 ... True
CCCC[C@H]1C(=O)O[C@H](C)[C@H](NC(=O)c2cccc(NC=O)c2OC)C(=O)O[C@@H](C)[C@@H]1OC(=O)CC(C)C (tested in a mixture with another compound) ... True
O=C1CS(=O)(=O)C(c2cccc(Oc3ccccc3)c2)N1C1CC1 (configuration not stated) ... True
CN(C)CCS(=O)(=O)Nc1cc(-c2ccc3ncc(C#N)c(Nc4ccc(F)c(Cl)c4)c3c2)cnc1Cl ... False
COC(=O)CNc1nc(N(C)O)nc(N(C)O)n1 ... True
O=c1[nH]c(=O)n(CCOc2ccc(Cl)cc2)cc1Nc1ccccc1 ... True
O=C(O)c1cn(C2CC2)c2cc(N3CCN(Cc4c(O)ccc5ccccc45)CC3)c(F)cc2c1=O ... False
COP(=O)(OC)[C@H](O)[C@H]1C[C@@H]1c1ccccc1 ... True
COc1ccc2c(c1)CCCc1c-2nc2ccccc2c1N ... False
S=C1CC(c2ccccc2)Sc2cc(Cl)ccc2N1 (configuration not stated) ... True

###

- System: IGROV1 ovarian
- TEST NAME: NCI tumour cell line growth inhibition, 48 h
MEASURED METRIC: TGI

COc1ccc2c(c1OC)C(=O)N/C2=C\c1c(CCN(C)C)cc2c(c1OC)OCO2 ... > 100 µM
O=c1[nH]c(=O)n(CCOCP(=O)(O)O)nc1Br ... > 100 µM
CCC12C=CCN3CCC4(c5cc(C(c6ccc(OC)cc6)C6Cc7ccccc7N6)c(OC)cc5N(C)C4C(O)(C(=O)OC)C1O)C32 (stereo unspecified) ... 51.2 µM
CCN(CCO)CCNc1ccc(C)c2sc3ccccc3c(=O)c12 ... 12.9 µM
COC(=O)/N=[N+](\[O-])C(c1ccccc1)c1ccccc1 ... > 100 µM
Cc1ccsc1-c1ccc2c(c1)COC2(CCCN(C)C)c1ccc(F)cc1 (stereo unspecified) ... 5.86 µM
O=C(O)CN(c1ccc(F)cc1)S(=O)(=O)c1ccccc1 ... > 100 µM
COc1ccc(N=Cc2ccc(N(CCC#N)S(=O)(=O)c3ccccc3)cc2C)cc1 ... > 100 µM
NC(N)=Nc1ccc(/C=C2\C=Cc3ccccc32)cc1 ... 5.12 µM
C(#CC1(Nc2ccccc2)CCN(Cc2ccccc2)CC1)C1(Nc2ccccc2)CCN(Cc2ccccc2)CC1 ... > 46.4 µM
CC(=O)OCC1OC(n2ncc(=O)[nH]c2=O)C(OC(C)=O)C1OC(C)=O (stereo unspecified) ... > 100 µM
O=CN1CCC23CC(O)CCC2C1Cc1cc(Oc2nnnn2-c2ccccc2)cc(O)c13 (stereo unspecified) ... > 100 µM
CN(C)c1ccccc1[CH2][Ga]([Cl])[CH2]c1ccccc1N(C)C ... 2.73 µM
CN(C)CCOc1ccccc1NC1=C(Cl)C(=O)C(Nc2ccccc2OCCN(C)C)=C(Cl)C1=O ... 1.48 µM
CC(C)Cn1cnc2c(Cl)nc3ccccc3c21 ... > 100 µM
O=C(Nc1cccc(C(=O)NCCCO)c1)/C(=C/c1ccccc1)NC(=O)c1ccccc1 ... > 100 µM
Cn1cc(C2=C(c3cn(CCCCCO)c4ccccc34)C(=O)NC2=O)c2ccccc21 ... 17.9 µM
O=C(O)c1ccc([C@@H]2C(=O)N(O)[C@@H]3C=CC[C@@H]32)cc1 ... > 100 µM
CCOC(=O)C12CC(C)=C(C)CC1CCCc1ccccc12 (stereo unspecified) ... > 100 µM
CC(=O)N[C@@H](Cc1ccc(OP(=O)(O)O)cc1)C(=O)N[C@H]1CCC(=O)N2CCC[C@@H](C(=O)NCc3ccccc3)N2C1=O ... > 25 µM
C#CCOCn1cc(C)c(=O)[nH]c1=O ... > 100 µM

###

- Test system: SF-539 CNS
- TEST NAME: NCI tumour cell line growth inhibition, 48 h
MEASURED METRIC: GI50

NCCSC(c1ccccc1)(c1ccccc1)c1ccccc1 ... 1.36 µM
O=C1CC(N2C(=O)/C(=C/C(Cl)=C\c3ccc([N+](=O)[O-])cc3)SC2=S)C(=O)N1c1ccc(O)cc1 (stereo not drawn) ... 1.72 µM
CC(=O)N[C@@H](Cc1ccc(OP(=O)(O)O)cc1)C(=O)N[C@H]1CCC(=O)N2CCC[C@@H](C(=O)NCc3ccccc3)N2C1=O ... > 25 µM
C=CC(=O)N1CC[C@H](n2nc(C#Cc3cc(OC)cc(OC)c3)c3c(N)ncnc32)C1 ... 2.6 µM
O=S(=O)(NCCCNc1cc(-c2cn(-c3ccccc3)nc2-c2cccc(O)c2)ccn1)c1ccc(Br)cc1 ... 1.69 µM
O=[N+]([O-])c1ccc2c(c1)C(c1ccccc1Cl)=Nc1c(n[nH]c1-c1cccnc1)N2 ... > 25 µM
O=C([CH-]C(=O)c1ccccc1)c1ccccc1.O=C([CH-]C(=O)c1ccccc1)c1ccccc1.O=C([CH-]C(=O)c1ccccc1)c1ccccc1.[Cl-].[Hf+4] ... 17.2 µM
COc1ccc2nc3cccc([N+](=O)[O-])c3c(NC(C)CN(C)C)c2c1 (stereo not drawn) ... 2.66 µM

###

The entries below come with measured TGI values attached.
- Tested on: SNB-78 CNS
- TEST NAME: NCI tumour cell line growth inhibition, 48 h
MEASURED METRIC: TGI (µM)

COc1cc(C2C(=O)C(Cl)N2Nc2nc(C)cc(=O)[nH]2)cc(OC)c1OC (centres undefined) ... 65.8
Cc1ccc(C2=Nc3ccccc3S(=O)C(c3ccc4c(c3)OCO4)C2)cc1 (centres undefined) ... 86.9
C=C1CC2(CCS(=O)(=O)c3ccccc32)OC1=O (centres undefined) ... 33.6
CCN(CCO)CCNc1ccc(C)c2sc3ccccc3c(=O)c12 ... 20.6
COc1cc(O)c2c(c1)C(=O)C1=C(C2=O)C(O)C[C@@](C)(O)C1 (some centres undefined) ... 4.67
CCC1(c2ccc(N)cc2)CCC(=O)NC1=O (centres undefined) ... 4970
